System: A549 cells
Test: Intracellular ATP assay, A549 cells transfected with oligonucleotide;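 also: ATP as percent of saline control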
Type: cell-based, human
Details: A549, 48 hours after transfection, 1 ng oligonucleotide
l = locked nucleic acid (LNA); d = 2'-deoxy (DNA)
ATP overview

substance: CGTcagtatgcgAATc (CGTCAGTATGCGAATC; chemistry not given here) [Compound 1-1]
ATP [% saline]: 89

substance: AATgctacaaaaCCCA (antisense AATGCTACAAAACCCA; sugars from the 5' end l3 d9 l4, backbone and methylation of C not given here) [Compound 2-1]
ATP [% saline]: 96

substance: TGCtacaaaacCCA (antisense TGCTACAAAACCCA; sugars from the 5' end l3 d8 l3, backbone and methylation of C not given here) [Compound 3-1]
ATP [% saline]: 91

substance: ACTgctttccactCTG (ACTGCTTTCCACTCTG; chemistry not given here) [Compound 8-1]
ATP [% saline]: 101

substance: GCtgtgtgagcttGG (antisense GCTGTGTGAGCTTGG; sugars from the 5' end l2 d11 l2, backbone and methylation of C not given here) [Compound 4-1]
ATP [% saline]: 93

###

Tested on: PTEC-TERT1 cells
Assay: EGF assay, supernatant of PTEC-TERT1 cells
Conditions: PTEC-TERT1, 6 days, 30 μM oligonucleotide (Table 7)
Listed substances paired with reported EGF
reported-property: EGF (% saline)

substance: CACattrccttrgctrCTrG (antisense CACATTCCTTGCTCTG; LNA gapmer, stereodefined phosphorothioates, chemistry not fully specified) [Compound 10-3]
system-name: PTEC-TERT1 cells
readout-unit: % saline
measured-value: 1740

substance: ACTgcstttcscacstCTG (antisense ACTGCTTTCCACTCTG; LNA gapmer, stereodefined phosphorothioates, chemistry not fully specified) [Compound 8-2]
system-name: PTEC-TERT1 cells
readout-unit: % saline
measured-value: 25199

substance: CACattccttgctCTG (CACATTCCTTGCTCTG; chemistry not given here) [Compound 10-1]
system-name: PTEC-TERT1 cells
readout-unit: % saline
measured-value: 1283

###

System: PTEC-TERT1 cells
Assay: EGF assay, supernatant of PTEC-TERT1 cells
Details: PTEC-TERT1, Day 7, 100 μM (Table 3)
l = locked nucleic acid (LNA); d = 2'-deoxy (DNA)

substance: TGCtacaaaacCCA (antisense TGCTACAAAACCCA; sugars from the 5' end l3 d8 l3, backbone and methylation of C not given here) [Compound 3-1]
readout-unit: % saline
EGF: 493
//
substance: GCtgtgtgagcttGG (antisense GCTGTGTGAGCTTGG; sugars from the 5' end l2 d11 l2, backbone and methylation of C not given here) [Compound 4-1]
readout-unit: % saline
EGF: 983
//
substance: AATgctacaaaaCCCA (antisense AATGCTACAAAACCCA; sugars from the 5' end l3 d9 l4, backbone and methylation of C not given here) [Compound 2-1]
readout-unit: % saline
EGF: 117
//
substance: CGTcagtatgcgAATc (CGTCAGTATGCGAATC; chemistry not given here) [Compound 1-1]
readout-unit: % saline
EGF: 135
//
substance: TAAggcaatcaagGTA (TAAGGCAATCAAGGTA; chemistry not given here) [Compound 5-1]
readout-unit: % saline
EGF: 754

###

Test system: PTEC-TERT1 cells
Assay: EGF assay, supernatant of PTEC-TERT1 cells
Settings: PTEC-TERT1, Day 10, 100 μM (Table 3)
l = locked nucleic acid (LNA); d = 2'-deoxy (DNA)
reported-property: EGF (% saline)

substance: TGCtacaaaacCCA (antisense TGCTACAAAACCCA; sugars from the 5' end l3 d8 l3, backbone and methylation of C not given here) [Compound 3-1]
measured-value: 227

substance: GCtgtgtgagcttGG (antisense GCTGTGTGAGCTTGG; sugars from the 5' end l2 d11 l2, backbone and methylation of C not given here) [Compound 4-1]
measured-value: 1792

substance: CGTcagtatgcgAATc (CGTCAGTATGCGAATC; chemistry not given here) [Compound 1-1]
measured-value: 59

substance: TAAggcaatcaagGTA (TAAGGCAATCAAGGTA; chemistry not given here) [Compound 5-1]
measured-value: 720

substance: AATgctacaaaaCCCA (antisense AATGCTACAAAACCCA; sugars from the 5' end l3 d9 l4, backbone and methylation of C not given here) [Compound 2-1]
measured-value: 154

###

Tested on: PTEC-TERT1 cells
Test: EGF assay, supernatant of PTEC-TERT1 cells
Settings: PTEC-TERT1, 6 days, 10 μM; from EGF, assay window saline vs toxic reference compound 4-1
reported-property: Toxicity grade

substance: CACattrccttrgctrCTrG (antisense CACATTCCTTGCTCTG; LNA gapmer, stereodefined phosphorothioates, chemistry not fully specified) [Compound 10-3]
measured-value: 9

substance: ACTgcrtttcrcacrtCTG (antisense ACTGCTTTCCACTCTG; LNA gapmer, stereodefined phosphorothioates, chemistry not fully specified) [Compound 8-3]
measured-value: 32

substance: CACattccttgctCTG (CACATTCCTTGCTCTG; chemistry not given here) [Compound 10-1]
measured-value: 11

###

Items are presented alongside their recorded EGF.
Tested on: PTEC-TERT1 cells
Experiment: EGF assay, supernatant of PTEC-TERT1 cells
Conditions: PTEC-TERT1, Day 3, 11 μM (Table 3)
l = locked nucleic acid (LNA); d = 2'-deoxy (DNA)
reported-property: EGF (% saline)

substance: AATgctacaaaaCCCA (antisense AATGCTACAAAACCCA; sugars from the 5' end l3 d9 l4, backbone and methylation of C not given here) [Compound 2-1]
readout-unit: % saline
measured-value: 135

substance: TGCtacaaaacCCA (antisense TGCTACAAAACCCA; sugars from the 5' end l3 d8 l3, backbone and methylation of C not given here) [Compound 3-1]
readout-unit: % saline
measured-value: 151

substance: CGTcagtatgcgAATc (CGTCAGTATGCGAATC; chemistry not given here) [Compound 1-1]
readout-unit: % saline
measured-value: 145

substance: GCtgtgtgagcttGG (antisense GCTGTGTGAGCTTGG; sugars from the 5' end l2 d11 l2, backbone and methylation of C not given here) [Compound 4-1]
readout-unit: % saline
measured-value: 225

substance: TAAggcaatcaagGTA (TAAGGCAATCAAGGTA; chemistry not given here) [Compound 5-1]
readout-unit: % saline
measured-value: 174

###

Test system: Primary human hepatocytes
Assay: EGF assay, culture media of primary human hepatocytes;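 also: values as percent of saline vehicle control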
Assay type: cell-based
Conditions: day 3, 10 μM, 10 ng/ml EGF in medium
l = locked nucleic acid (LNA); d = 2'-deoxy (DNA)
Recorded EGF, one value per entry.

substance: CGTcagtatgcgAATc (CGTCAGTATGCGAATC; chemistry not given here) [Compound 1-1]
EGF (% saline): 123
--
substance: GTCagaaacaaccACC (GTCAGAAACAACCACC; chemistry not given here) [Compound 14-1]
EGF (% saline): 139
--
substance: TGCtacaaaacCCA (antisense TGCTACAAAACCCA; sugars from the 5' end l3 d8 l3, backbone and methylation of C not given here) [Compound 3-1]
EGF (% saline): 227
--
substance: AATgctacaaaaCCCA (antisense AATGCTACAAAACCCA; sugars from the 5' end l3 d9 l4, backbone and methylation of C not given here) [Compound 2-1]
EGF (% saline): 122
--
substance: CACattccttgctCTG (CACATTCCTTGCTCTG; chemistry not given here) [Compound 10-1]
EGF (% saline): 145
--
substance: TGCtcaacatcAAG (TGCTCAACATCAAG; chemistry not given here) [Compound 11-1]
EGF (% saline): 184
--
substance: GCtgtgtgagcttGG (antisense GCTGTGTGAGCTTGG; sugars from the 5' end l2 d11 l2, backbone and methylation of C not given here) [Compound 4-1]
EGF (% saline): 323

###

Tested on: PTEC-TERT1 cells
Experiment: EGF assay, supernatant of PTEC-TERT1 cells
Settings: PTEC-TERT1, Day 10, 11 μM (Table 3)
l = locked nucleic acid (LNA); d = 2'-deoxy (DNA)
Below: a set of entries, each annotated with reported EGF.
reported-property: EGF (% saline)

substance: TGCtacaaaacCCA (antisense TGCTACAAAACCCA; sugars from the 5' end l3 d8 l3, backbone and methylation of C not given here) [Compound 3-1]
readout-unit: % saline
measured-value: 41
--
substance: CGTcagtatgcgAATc (CGTCAGTATGCGAATC; chemistry not given here) [Compound 1-1]
readout-unit: % saline
measured-value: 32
--
substance: GCtgtgtgagcttGG (antisense GCTGTGTGAGCTTGG; sugars from the 5' end l2 d11 l2, backbone and methylation of C not given here) [Compound 4-1]
readout-unit: % saline
measured-value: 1177
--
substance: TAAggcaatcaagGTA (TAAGGCAATCAAGGTA; chemistry not given here) [Compound 5-1]
readout-unit: % saline
measured-value: 54
--
substance: AATgctacaaaaCCCA (antisense AATGCTACAAAACCCA; sugars from the 5' end l3 d9 l4, backbone and methylation of C not given here) [Compound 2-1]
readout-unit: % saline
measured-value: 47

###

System: PTEC-TERT1 cells
Experiment: EGF assay, supernatant of PTEC-TERT1 cells
Conditions: PTEC-TERT1, Day 7, 11 μM (Table 3)
l = locked nucleic acid (LNA); d = 2'-deoxy (DNA)

substance: TGCtacaaaacCCA (antisense TGCTACAAAACCCA; sugars from the 5' end l3 d8 l3, backbone and methylation of C not given here) [Compound 3-1]
system-name: PTEC-TERT1 cells
EGF: 168 % saline
--
substance: AATgctacaaaaCCCA (antisense AATGCTACAAAACCCA; sugars from the 5' end l3 d9 l4, backbone and methylation of C not given here) [Compound 2-1]
system-name: PTEC-TERT1 cells
EGF: 69 % saline
--
substance: TAAggcaatcaagGTA (TAAGGCAATCAAGGTA; chemistry not given here) [Compound 5-1]
system-name: PTEC-TERT1 cells
EGF: 158 % saline
--
substance: GCtgtgtgagcttGG (antisense GCTGTGTGAGCTTGG; sugars from the 5' end l2 d11 l2, backbone and methylation of C not given here) [Compound 4-1]
system-name: PTEC-TERT1 cells
EGF: 637 % saline
--
substance: CGTcagtatgcgAATc (CGTCAGTATGCGAATC; chemistry not given here) [Compound 1-1]
system-name: PTEC-TERT1 cells
EGF: 94 % saline
